system: NCI-H1944; experiment: normalised cell viability (NPI; 0 = phenylarsine oxide control, 1 = DMSO control) (fraction of DMSO control); NCI-H1944 is a non-small cell lung cancer line; higher = more viable cells (less compound toxicity); conditions: glucocorticoid arm: vehicle; compound 5 µM; 6 days;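 also: CTB read-out in 384-well plates, triplicate wells, NPI normalised per plate against 1 µM phenylarsine oxide (0) and 0.1% DMSO (1) controls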
Structures can show the parent of a compound that is named as a salt. The full ranking holds about 1,900 compounds; the median of “normalised cell viability (NPI; 0 = phenylarsine oxide control, 1 = DMSO control)” is about 1, and the lowest 2% start at about 0.039. The list comes from a sample in which the lowest values are over-represented; it also holds close analogues and randomly drawn compounds.
# normalised cell viability per record follows

{"molecule": "C=CC(=O)Nc1ccc2ncnc(Nc3ccc(OCc4cccc(F)c4)c(Cl)c3)c2c1", "normalised cell viability": 0.623}
{"molecule": "C[C@]12CC[C@H](O)CC1=CC[C@@H]1[C@@H]2CC[C@]2(C)C(c3cccnc3)=CC[C@@H]12 [Abiraterone]", "normalised cell viability": 1.05}
{"molecule": "Cc1ccc(-n2nc(C(C)(C)C)cc2NC(=O)Nc2ccc(OCCN3CCOCC3)c3ccccc23)cc1 [BIRB 796 (Doramapimod)]", "normalised cell viability": 1.02}
{"molecule": "C/C=C1\\NC(=O)[C@H]2CSSCC/C=C/[C@H](CC(=O)N[C@H](C(C)C)C(=O)N2)OC(=O)[C@H](C(C)C)NC1=O [Romidepsin (FK228, Depsipeptide)]", "normalised cell viability": "2.1e-05"}
{"molecule": "CNC(=O)[C@H]1O[C@@H](n2cnc3c(N)ncnc32)[C@H](O)[C@@H]1O [5'-N-Methyl carboxamidoadenosine]", "normalised cell viability": 0.976}
{"molecule": "S=C=Nc1cccc(NC(=S)NCCCCNC(=S)Nc2cccc(N=C=S)c2)c1", "normalised cell viability": 1}
{"molecule": "CC1CCN=C(N)S1 (racemic) [(±)-AMT hydrochloride]", "normalised cell viability": 0.968}
{"molecule": "CCCNC[C@H](O)COc1ccccc1C(=O)CCc1ccccc1 [(S)-(-)-propafenone hydrochloride]", "normalised cell viability": 0.995}
{"molecule": "CCCN(CCc1ccccc1)C1CCc2c(O)cccc2C1 (racemic) [(±)-PPHT hydrochloride]", "normalised cell viability": 1}
{"molecule": "CN(CC[C@@H](Oc1ccc(C(F)(F)F)cc1)c1ccccc1)CC(=O)[O-].[Li+]", "normalised cell viability": 0.978}
{"molecule": "COc1cccc(NC(=O)/C=C/c2ccc(Cl)cc2)c1", "normalised cell viability": 0.968}
{"molecule": "NC(CCCP(=O)(O)O)C(=O)O (racemic) [(±)-2-Amino-5-phosphonopentanoic acid]", "normalised cell viability": 0.986}
{"molecule": "CC(C)c1cc(-c2ccc(F)c3ccccc23)nc(N)n1", "normalised cell viability": 1}
{"molecule": "O=C1c2c(O)ccc(O)c2C(=O)c2c(NCCNCCO)ccc(NCCNCCO)c21 [Mitoxantrone dihydrochloride]", "normalised cell viability": 0.00617}
{"molecule": "CCc1c(C(=O)NCCc2ccc(N3CCCCC3)cc2)[nH]c2ccc(Cl)cc12", "normalised cell viability": 0.982}
{"molecule": "O=C1c2ccccc2C(=O)c2c(NCCc3ccc(O)cc3)ccc(NCCc3ccc(O)cc3)c21", "normalised cell viability": 1.02}
{"molecule": "COC(=O)C(N)Cc1ccc(Cl)cc1 (racemic) [DL-p-Chlorophenylalanine methyl ester hydrochloride]", "normalised cell viability": 1.02}
{"molecule": "CC(C(=O)Nc1cccc(/N=C/c2c(O)ccc3ccccc23)c1)c1ccccc1 (stereo not given) [Salermide]", "normalised cell viability": 1}
{"molecule": "C[C@@H](Oc1ccc(Oc2cnc3ccc(Cl)cc3n2)cc1)C(=O)O", "normalised cell viability": 0.522}
{"molecule": "COc1c/c(=C2\\C=c3ccccc3=N2)[nH]/c1=C\\c1[nH]c(C)cc1C [Obatoclax mesylate (GX15-070)]", "normalised cell viability": 0.0292}
{"molecule": "OCC1OC(n2cnc3c(NCCc4ccccc4)ncnc32)C(O)C1O (stereo not given) [N6-2-Phenylethyladenosine]", "normalised cell viability": 1}
{"molecule": "Cc1cc(C)c(/C=C2\\C(=O)Nc3ccccc32)[nH]1", "normalised cell viability": 1.03}
{"molecule": "C[C@]12CC[C@@H]3c4ccc(O)cc4CC[C@H]3[C@@H]1CC[C@@H]2O [beta-Estradiol]", "normalised cell viability": 0.981}
{"molecule": "O=C(Nc1cccc(Nc2ncc(Br)c(NCCc3cnc[nH]3)n2)c1)N1CCCC1", "normalised cell viability": 0.635}
{"molecule": "CCCn1c(=O)c2[nH]c(-c3ccc(S(=O)(=O)O)cc3)nc2n(CCC)c1=O [1,3-Dipropyl-8-p-sulfophenylxanthine]", "normalised cell viability": 0.996}
{"molecule": "CNc1nc(Nc2cnn(C3CCN(C4COC4)CC3F)c2Cl)ncc1C(F)(F)F (stereo not given)", "normalised cell viability": 1.01}
{"molecule": "Cc1cc(C)c(/C=C2\\C(=O)Nc3ccccc32)[nH]1 [Semaxanib (SU5416)]", "normalised cell viability": 1.03}
{"molecule": "O=C(Cc1ccc(-c2ccc(OCCN3CCOCC3)cc2)cn1)NCc1ccccc1", "normalised cell viability": 0.0359}
{"molecule": "C[C@H](Cc1ccc(O)c(O)c1)[C@@H](C)Cc1ccc(O)c(O)c1", "normalised cell viability": 1.02}
{"molecule": "Cc1cc(N2CCOCC2)cc2[nH]c(-c3c(NCC(O)c4cccc(Cl)c4)cc[nH]c3=O)nc12 (stereo not given)", "normalised cell viability": 0.263}
{"molecule": "O=C1NCCc2[nH]c(-c3ccncc3)cc21", "normalised cell viability": 0.0151}
{"molecule": "CC(C=CC(=O)NO)=CC(C)C(=O)c1ccc(N(C)C)cc1 (stereo not given) [Trichostatin A (TSA)]", "normalised cell viability": "8.2e-05"}
{"molecule": "CC(C)NCC(O)COc1ccc(CC(N)=O)cc1 (racemic) [(±)-Atenolol]", "normalised cell viability": 1.01}
{"molecule": "O=S(=O)(NCCNCC=Cc1ccc(Br)cc1)c1cccc2cnccc12", "normalised cell viability": 0.968}
{"molecule": "O=C(O)CCC(NC(=O)c1ccccc1C(=O)O)C(=O)O [Phthalamoyl-L-glutamic acid trisodium]", "normalised cell viability": 1.01}

Provenance of the data: the supplement of paper PMC8285479
